These data points were gathered from patent US20190359693A1.

target: HA of H1N1 A/New Caledonia/20/1999 (influenza A virus); test: cell-based or functional assay
quantity_name: log10 VNA titer (log10 of the value in nM)

[[record]]
binder = "SD1074 (VHH) VHH: EVQLVESGGGLVQAGGSLRLSCAASRNFDAIGAMGWYRQAPGKQRELVAEITSDGSTNYTDSVKGRFTISRDNALRTMYLQMNALEPEDTAVYYCKADISIYGLTNFPYWGQGTQVTVSS"
quantity_name = "log10 VNA titer"
assay_result = 2.05

[[record]]
binder = "SD1069 (VHH) VHH: EVQLVESGGGLVQAGDSLRLSCAASGPTFGMSAMGWFRQAPGKEREFVAAISGLGNPNYSDDVKGRFTISRENGRNTVYLQMNSLKPEDTAVYYCAQRKVYHVQGGDRPQAYDYWGQGTQVTVSS"
quantity_name = "log10 VNA titer"
assay_result = 1.32

[[record]]
binder = "SD1045 (VHH) VHH: EVQLVESGGGLVQAGGSLRLSCAASGSSFSINVMGWYRQAPGKQREMVATITYGGSTNYVDSVKGRFTISRDNAKNTVYLQMNSLKPEDTAVYYCNSRLAQINYWGQGTQVTVSS"
quantity_name = "log10 VNA titer"
assay_result = 2.22

[[record]]
binder = "SD1073 (VHH) VHH: EVQLVESGGGLVQAGGSLRLSCAASGSAFSIAAMGWYRQAPGKQRELVATITTGGSTNYADSVKGRFTISRDNSKNTAYLQMNSLKPEDTAVYYCTAKSVVAETFGDLYNYWGQGTQVTVSS"
quantity_name = "log10 VNA titer"
assay_result = 2.00

[[record]]
binder = "SD1035 (VHH) VHH: EVQLVESGGGLVQAGGTLRLSCAASGSAVSISRMAWYRQAPGKQRELVADIFSGGGTNYADSVKGRFTISRDNAKNTVDLQMNSLKPEDTAVYYCSARSAVAAIHWDQYDYWGQGTQVTVSS"
quantity_name = "log10 VNA titer"
assay_result = 1.87

[[record]]
binder = "SD1034 (VHH) VHH: EVQLVESGGGLVQAGGSLRLSCAASGTIFGIRVNTMGWYRQAPGEQRELVATITRSGGTNYADSVKDRFTISGDFAKDTVYLQMMHLKPEDTAVYYCNGRWALTDYWGQGTQVTVSS"
quantity_name = "log10 VNA titer"
assay_result = 2.21

[[record]]
binder = "SD1027 (VHH) VHH: EVQLVESGGGMVQAGGSLRLSCAASGGTFSLYHMGWFRQAPGEEREFVAAISGSGGNTYYADSVKGRFTISRDNNKNTVYLQMSSLEPEDTAVYFCAAMKWPGILRDANAYDYWGQGTQVTVSS"
quantity_name = "log10 VNA titer"
assay_result = 2.94

[[record]]
binder = "SD1076 (VHH) VHH: EVQLVESGGGLVQAGGSLTLSCAGSGFAFSIATMGWYRQAPGKQRELVADITSGGSTNYADSVKGRFTISRDNAKNTVYLQMNSLKPEDTAVYYCNADSLATGWRQYSYWGKGTQVTVSS"
quantity_name = "log10 VNA titer"
assay_result = 1.34

[[record]]
binder = "SD1072 (VHH) VHH: EVQLVESGGGLVEAGGSLRLSCAVSGRTFSMYATGWFRQAPGKEREFVAAINSSGDKTTYADSVEGRFTISRDIGTVYLQMNNLNPEDTAVYYCAAARTLAVVTIPGGYEYWGQGTQVTVSS"
quantity_name = "log10 VNA titer"
assay_result = 1.89

